Tested on: isolated renal cortical cells (IRCC)
assay remarks: Effect of antioxidant or biotransformation inhibitor pretreatment on TCNB cytotoxicity, LDH release in IRCC
assay context: pretreatment compound alone, no TCNB; Table 3 experiments, 90 min incubation; mean ± S.E., n = 4
result type: % of lactate dehydrogenase release, PreTx (%)
Numbers only, in %.

Here is how some compounds turned out for % of lactate dehydrogenase release, PreTx.
compound | measurement unit | endpoint result
CC(C)(C(=O)c1cccnc1)c1cccnc1 | % | 15
CCCCCCCCN | % | 11
CCCCOCCOCCOCc1cc2c(cc1CCC)OCO2 [PiBx, Piperonyl butoxide] | % | 13
Cc1c(C)c2c(c(C)c1O)CC[C@@](C)(CCC[C@H](C)CCC[C@H](C)CCCC(C)C)O2 | % | 14
CC(=O)N[C@@H](CS)C(=O)O | % | 13

// batch mode: one % of lactate dehydrogenase release, PreTx value per listed entry
1. Cn1cc[nH]c1=S
2. O=C(O)CC(S)C(=O)O (centres unmarked) [Mercaptosuccinate]

[17, 16]

====

Test system: isolated renal cortical cells (IRCC)
assay remarks: Effect of antioxidant or biotransformation inhibitor pretreatment on TCNB cytotoxicity, LDH release in IRCC
assay context: pretreatment compound alone, no TCNB; Table 2 experiments, 90 min incubation; mean ± S.E., n = 4
result type: % of lactate dehydrogenase release, PreTx (%)
One number for each entry, in %.

compound | endpoint result
Cn1cc[nH]c1=S [Methimazole] | 14

Please state % of lactate dehydrogenase release, PreTx for every compound in the list that follows.
1. CCCCOCCOCCOCc1cc2c(cc1CCC)OCO2 [PiBx, Piperonyl butoxide]
2. CC(=O)N[C@@H](CS)C(=O)O [NAC, N-acetyl-L-cysteine]
3. COc1ccc2c(c1)c(CC(=O)O)c(C)n2C(=O)c1ccc(Cl)cc1 [Indomethacin]
4. N[C@@H](CCC(=O)N[C@@H](CS)C(=O)NCC(=O)O)C(=O)O [Glutathione]
5. O=C1O[C@H]([C@@H](O)CO)C(O)=C1O [Ascorbate]
6. Cc1c(C)c2c(c(C)c1O)CC[C@@](C)(CCC[C@H](C)CCC[C@H](C)CCCC(C)C)O2 [α–Tocopherol, α-Tocopherol]

1. 11
2. 15
3. 16
4. 15
5. 12
6. 13

Provide the reported % of lactate dehydrogenase release, PreTx of each entry below, same order.
1. CCCCCCCCN [n-Octylamine, N-Octylamine]
2. NNC(=O)c1ccncc1 [Isoniazid]

1: 11; 2: 10

====

Test system: isolated renal cortical cells (IRCC)
assay remarks: Effect of antioxidant or biotransformation inhibitor pretreatment on TCNB cytotoxicity, LDH release in IRCC
assay context: pretreatment compound alone, no TCNB; Table 1 experiments, 60 min incubation; mean ± S.E., n = 4
result type: % of lactate dehydrogenase release, PreTx (%)
One number for each entry, in %.

Here are 6 compounds together with their reported answers.
compound | endpoint result
CC(=O)N[C@@H](CS)C(=O)O | 13
Cc1c(C)c2c(c(C)c1O)CC[C@@](C)(CCC[C@H](C)CCC[C@H](C)CCCC(C)C)O2 | 11
NNC(=O)c1ccncc1 | 11
COc1ccc2c(c1)c(CC(=O)O)c(C)n2C(=O)c1ccc(Cl)cc1 | 13
CC(C)(C(=O)c1cccnc1)c1cccnc1 | 12
O=C1O[C@H]([C@@H](O)CO)C(O)=C1O [Ascorbate] | 12

# per-item lookup of % of lactate dehydrogenase release, PreTx; items listed below
1. Cn1cc[nH]c1=S
2. N[C@@H](CCC(=O)N[C@@H](CS)C(=O)NCC(=O)O)C(=O)O

1: 9; 2: 13

Batch: % of lactate dehydrogenase release, PreTx for all items listed.
1. CCCCOCCOCCOCc1cc2c(cc1CCC)OCO2 [PiBx, Piperonyl butoxide]
2. O=C(O)CC(S)C(=O)O (centres unmarked) [Mercaptosuccinate]

[10, 10]

====

System: isolated renal cortical cells (IRCC)
assay remarks: Effect of antioxidant or biotransformation inhibitor pretreatment on TCNB cytotoxicity, LDH release in IRCC
assay context: 1.0 mM 2,4,6-TCNB, 90 min exposure, IRCC
result type: Effect of pretreatment on 2,4,6-TCNB cytotoxicity

compound | endpoint result
Cn1cc[nH]c1=S | reduced
CC(=O)N[C@@H](CS)C(=O)O | not reduced
CC(C)(C(=O)c1cccnc1)c1cccnc1 | reduced
Cc1c(C)c2c(c(C)c1O)CC[C@@](C)(CCC[C@H](C)CCC[C@H](C)CCCC(C)C)O2 | not reduced

Provide Effect of pretreatment on 2,4,6-TCNB cytotoxicity, system isolated renal cortical cells (IRCC), entry COc1ccc2c(c1)c(CC(=O)O)c(C)n2C(=O)c1ccc(Cl)cc1
reduced

====

Test system: isolated renal cortical cells (IRCC)
assay remarks: Effect of antioxidant or biotransformation inhibitor pretreatment on TCNB cytotoxicity, LDH release in IRCC
assay context: 0.5 mM 3,4,5-TCNB, 30 min exposure, IRCC
result type: Effect of pretreatment on 3,4,5-TCNB cytotoxicity

molecule | endpoint result
COc1ccc2c(c1)c(CC(=O)O)c(C)n2C(=O)c1ccc(Cl)cc1 | reduced
O=C(O)CC(S)C(=O)O (stereo not drawn) [Mercaptosuccinate] | reduced
CC(C)(C(=O)c1cccnc1)c1cccnc1 | reduced

====

System: isolated renal cortical cells (IRCC)
assay remarks: Effect of antioxidant or biotransformation inhibitor pretreatment on TCNB cytotoxicity, LDH release in IRCC
assay context: pretreatment compound followed by 1.0 mM 2,3,4-TCNB, 60 min; mean ± S.E., n = 4
Marks after values point to notes of the source that are not given here.
Kindly state % of lactate dehydrogenase release, PreTx + TCNB for each of the entries shown.

compound | endpoint result
Cc1c(C)c2c(c(C)c1O)CC[C@@](C)(CCC[C@H](C)CCC[C@H](C)CCCC(C)C)O2 [α–Tocopherol, α-Tocopherol] | 12 ± 2 ^d %
CCCCOCCOCCOCc1cc2c(cc1CCC)OCO2 [PiBx, Piperonyl butoxide] | 12 ± 1 ^c,d %
CC(C)(C(=O)c1cccnc1)c1cccnc1 [Metyrapone] | 17 ± 1 ^c %
NNC(=O)c1ccncc1 [Isoniazid] | 19 ± 1 ^c,d %
CC(=O)N[C@@H](CS)C(=O)O [NAC, N-acetyl-L-cysteine] | 16 ± 1 ^c,d %
N[C@@H](CCC(=O)N[C@@H](CS)C(=O)NCC(=O)O)C(=O)O [Glutathione] | 14 ± 1 ^d %
Cn1cc[nH]c1=S [Methimazole] | 11 ± 1 ^d %
O=C1O[C@H]([C@@H](O)CO)C(O)=C1O [Ascorbate] | 14 ± 1 ^d %
COc1ccc2c(c1)c(CC(=O)O)c(C)n2C(=O)c1ccc(Cl)cc1 [Indomethacin] | 16 ± 2 ^c,d %
O=C(O)CC(S)C(=O)O (centres unmarked) [Mercaptosuccinate] | 10 ± 1 ^d %

Now for a further compound.
For the compound CCCCCCCCN [n-Octylamine, N-Octylamine] , give its reported % of lactate dehydrogenase release, PreTx + TCNB.
19 ± 1 ^c,d %

====

Tested on: isolated renal cortical cells (IRCC)
assay remarks: Effect of antioxidant or biotransformation inhibitor pretreatment on TCNB cytotoxicity, LDH release in IRCC
assay context: pretreatment compound followed by 1.0 mM 2,4,6-TCNB, 90 min; mean ± S.E., n = 4
Marks after values point to notes of the source that are not given here.
result type: % of lactate dehydrogenase release, PreTx + TCNB

# example entries with known answers
compound | study target | endpoint result
N[C@@H](CCC(=O)N[C@@H](CS)C(=O)NCC(=O)O)C(=O)O | isolated renal cortical cells (IRCC) | 20 ± 1 ^c,d %
CC(C)(C(=O)c1cccnc1)c1cccnc1 | isolated renal cortical cells (IRCC) | 27 ± 2 ^c %
Cn1cc[nH]c1=S | isolated renal cortical cells (IRCC) | 31 ± 2 ^c %

Please give % of lactate dehydrogenase release, PreTx + TCNB, item by item, for the list that follows.
1. CC(=O)N[C@@H](CS)C(=O)O
2. NNC(=O)c1ccncc1
3. O=C1O[C@H]([C@@H](O)CO)C(O)=C1O [Ascorbate]
4. COc1ccc2c(c1)c(CC(=O)O)c(C)n2C(=O)c1ccc(Cl)cc1
5. Cc1c(C)c2c(c(C)c1O)CC[C@@](C)(CCC[C@H](C)CCC[C@H](C)CCCC(C)C)O2
6. O=C(O)CC(S)C(=O)O (centres unmarked) [Mercaptosuccinate]

1: 23 ± 2 ^c %; 2: 28 ± 2 ^c %; 3: 17 ± 2 ^c,d %; 4: 21 ± 1 ^c,d %; 5: 25 ± 2 ^c %; 6: 31 ± 1 ^c %

Would you mind listing % of lactate dehydrogenase release, PreTx + TCNB for each of the following compounds?
1. CCCCOCCOCCOCc1cc2c(cc1CCC)OCO2 [PiBx, Piperonyl butoxide]
2. CCCCCCCCN

1: 22 ± 1 ^c %; 2: 29 ± 3 ^c %
